Molecular target: Streptavidin (Streptomyces avidinii)
Assay: compounds binding control protein streptavidin – biophysical, small-molecule microarray, 635/667 nm fluorescence, artefact control for SMM compound annotation, primary screen (AID 1147);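 note: signal reflects streptavidin binding to arrayed compounds as a control protein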
Conditions: higher = more signal
Label rule, in plain words: composite z-score of 0.2 and up is Met, under 0.2 is Not met.

Illustrative cases are given below, each with its answer.
# compound, category label
measured = [
    ("NCCCCCCNC(=O)[C@@H]1C[C@@H]2C(=O)N3CCC[C@H]3C(=O)N2[C@@H]1c1cccc(OCCO)c1", "Met"),
    ("[N-]=[N+]=Nc1ccccc1[C@@H]1OC(c2ccc(OCCCO)cc2)=N[C@]1(Cc1ccccc1)C(=O)NCCN1CCOCC1", "Met"),
    ("COC(=O)[C@@]1(Cc2ccccc2)[C@H]2c3cc(C(=O)N(C)C)n(Cc4ccc(C(F)(F)F)nc4)c3C[C@H]2CN1C(=O)c1ccccc1", "Met"),
    ("CC(C)C[C@H]1NC(=O)C([C@@H](C)OCc2ccccc2)NC(=O)[C@@]23C(=O)N[C@@H](Cc4ccccc4)C2[C@H](C)[C@@]2(C)O[C@H]2C3/C=C/C/C=C\\CNC1=O (some centres undefined)", "Not met"),
    ("O=C1C[C@@](C(=O)NC2CC2)(c2ccc([N+](=O)[O-])cc2)[C@@H](c2ccc(CO)cc2)N1C1CCCCC1", "Not met"),
    ("CC(C)(C)N1CC=CC23O[C@@H]4/C=C\\CCCOC(=O)C4[C@H]2C(=O)N(CCCCCO)[C@@H]3C1=O (some centres undefined)", "Not met"),
    ("CC(C)OC(=O)CC(=O)CC(O)c1cccc([N+](=O)[O-])c1 (centres undefined)", "Met"),
    ("C=CCN1Cc2ccccc2[C@H]2OC(c3ccc(OCCCO)cc3)=N[C@@]2(CCS(=O)(=O)c2ccccc2)C1=O", "Met"),
]

Prompt line: Textbook exercise: given the entry CC(C)N1C(=O)c2ccccc2[C@](C)(C(=O)NCC(F)(F)F)[C@@H]1c1ccc(CO)cc1 , state whether its composite z-score is greater than or equal to 0.2.
Response line: Not met

Prompt line: Assess whether reported composite z-score for Cc1ccc(S[C@]2(C(=O)NCCCN(C)C)CC(=O)N(Cc3ccccc3C(F)(F)F)[C@@H]2c2ccc(CO)cc2I)cc1 sits at 0.2 or higher.
Response line: Not met

Prompt line: In plain terms: is recorded composite z-score at least 0.2 for CN1C(=O)C2C(C1=O)C1C=C(CCCO)C2C(C2CC2)N1Cc1cccc(OC(F)(F)F)c1 (centres undefined) ?
Response line: Met

Prompt line: Does COCCOC(=O)N1C(=O)[C@@]2(c3cc(C#CC4(O)CCCCCC4)ccc31)[C@H](c1ccc(O)cc1)N1[C@H](c3ccccc3)[C@H](c3ccccc3)OC(=O)[C@H]1[C@@H]2C(=O)N1CCCCCCC1 have a reported composite z-score of at least 0.2?
Response line: Not met

Prompt line: Could you please find out whether COC(=O)C(CC#Cc1ccc2c(c1)[C@]1(C(=O)N2)[C@H](c2ccccc2OCCO)N2[C@H](c3ccccc3)[C@H](c3ccccc3)OC(=O)[C@H]2[C@@H]1C(=O)N1CCc2cc(OC)c(OC)cc2C1)C(=O)OC has composite z-score that meets 0.2 or exceeds it?
Response line: Met

###

Experiment: budding yeast growth modifiers under rapamycin – strain BY4716, OD600, 96 h, primary screen (AID 1091); note: test concentration not given here
Conditions: S. cerevisiae BY4716 + rapamycin, higher = more signal, called active from +8 up or from −8 down
The molecules listed here are annotated with their z-score.
Please give the numeric answer without any surrounding text.

Below are worked cases with known answers.
# smiles representation, z-score
measured = [
    ("COc1ccc([Si](C)(C)[C@@H]2[C@@H](CC(=O)N3CCC[C@H]3CO)O[C@]3(C(=O)N(Cc4ccc(N5CCOC5=O)cc4)c4ccccc43)[C@H]2C)cc1", -0.356),
    ("CN(C)CCCNC(=O)[C@@]1(C)c2ccccc2C(=O)N(Cc2ccc(OC(F)(F)F)cc2)[C@H]1c1ccc(CO)cc1", -1.42),
]

Prompt line: Dear colleague, I am looking for the recorded z-score of the following molecule: CC(C)(C)OC(=O)CC[C@@]1(C(=O)NCCN2CCOCC2)N=C(c2ccc(OCCCO)cc2)O[C@@H]1c1ccccc1CN=[N+]=[N-]
Response line: -1.3

Prompt line: z-score lookup needed for CN(C)CCCC[C@@H]1NC(=O)[C@@H]2C[C@H](C(=O)NCCCCCN)[C@H](c3cccc(OCCO)c3)N2C1=O , thanks.
Response line: -0.962

###

Test system: Human papillomavirus type 1a E7 protein (residues 1-88)
Assay: HPV1a E7 small-molecule binders, primary screen, biochemical, small-molecule microarray, residues 1-88, 635 nm (AID 1129)
Conditions: small-molecule microarray binding, fluorescence 635 nm; higher = more signal
# if value of composite z-score reaches 1, tag met; if it stays below, tag not met

# compound, experimental system, category label
measured = [
    ("CC[C@@H]1C=C(C(=O)O)[C@H](c2ccc(OC)cc2)N1S(=O)(=O)c1ccc(C)cc1", "Human papillomavirus type 1a E7 protein (residues 1-88)", "not met"),
    ("COCCOC(=O)N1C(=O)[C@@]2(c3cc(C#CCC(C(=O)OC)C(=O)OC)ccc31)[C@H](c1ccc(O)cc1)N1[C@H](c3ccccc3)[C@H](c3ccccc3)OC(=O)[C@H]1[C@@H]2C(=O)Nc1nc2ccccc2s1", "Human papillomavirus type 1a E7 protein (residues 1-88)", "met"),
    ("C=C(CCCC)/C(=C/C[C@H](OC(=O)c1ccncc1)c1cccc(OCCO)c1)c1cnc2ccccc2c1", "Human papillomavirus type 1a E7 protein (residues 1-88)", "met"),
    ("COc1cc(OC)c(C(O)C2C=CC3C(=O)N(c4ccccc4)C(=O)C3N2Nc2ccc(C(C)C)cc2)cc1Br (stereo not given)", "Human papillomavirus type 1a E7 protein (residues 1-88)", "met"),
    ("COc1cc(CO)cc(I)c1O[C@H]1C=C(C(=O)NCCO)C[C@@H](NC2CCCCCC2)[C@@H]1O", "Human papillomavirus type 1a E7 protein (residues 1-88)", "met"),
]

Prompt line: Identify whether the reported composite z-score of the following compound is 1 or greater: C[C@@H]1NC(=O)C([C@@H](C)OCc2ccccc2)NC(=O)[C@@]23C(=O)N[C@@H](Cc4ccccc4)C2[C@H](C)[C@@]2(C)O[C@H]2C3/C=C/C/C=C\CNC1=O (stereo not given in full)
Response line: not met

Prompt line: State whether the measured composite z-score reaches 1, counting equality as reaching it, for CCOC(=O)c1cn(C[C@H](Cc2ccccc2)NC(=O)N[C@H](CO)CCc2oc(C(C)=O)c(C(=O)OC)c2C(=O)OC)nn1
Response line: met

###

Entries annotated with measured composite z-score
Assay: probe aLAP1 signal on lysate-treated microarray – cell lysate, small-molecule microarray, COS7 lysate, primary screen (AID 1124);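 note: lysate comes from COS7 cells expressing LAP1 and is applied at 0.3 µg/mL; score merges spot fluorescence near 667 nm with signal-to-noise over triplicate slides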
Conditions: probe aLAP1, fluorescence, higher = more signal
Response field accepts a number only; no unit should be typed.

Prompt line: Look up composite z-score: CC(C)C[C@H]1NC(=O)C([C@@H](C)OCc2ccccc2)NC(=O)[C@@]23C(=O)N[C@@H](Cc4ccccc4)C2[C@H](C)[C@@]2(C)O[C@H]2C3/C=C/C/C=C\CNC1=O (some centres not stated)
Response line: 0.653

Prompt line: Which composite z-score reading was recorded for the molecule C=CCNC(=O)[C@H]1[C@@H]2C(=O)O[C@@H](c3ccccc3)[C@@H](c3ccccc3)N2[C@@H](c2ccc(OCCO)cc2)[C@]12C(=O)Nc1ccccc12 ?
Response line: 1.15

Prompt line: Please look up its composite z-score: O=C1O[C@H](c2ccccc2)[C@H](c2ccccc2)N2[C@H]1[C@@H](C(=O)O)[C@]1(C(=O)Nc3ccc(C#CCCO)cc31)[C@H]2c1ccc(OCCO)cc1
Response line: 1.38

###

The following compounds are listed with their measured z-score values.
Experiment: inhibition of PAO1 biofilm formation – strain PAO1, LB-PBS medium, absorbance 600 nm, primary screen (AID 1176); note: test concentration not given here
Conditions: P. aeruginosa PAO1 growth/biofilm, A600, 12 h; higher = more signal
Activity calls are given as the source filed them. The rule behind the calls is not given here.

# compound, value measured
records = [
    ("O=C(NC1CC1)[C@@H]1c2ccccc2C(=O)N(Cc2cc(C(F)(F)F)cc(C(F)(F)F)c2)[C@H]1c1ccc(CO)cc1", "1.12 (inactive)"),
    ("COCCCNC(=O)[C@@]1(CCC(=O)OC(C)(C)C)COC(c2ccc(OCCCO)cc2)=N1", "-0.978 (inactive)"),
    ("CN(C)c1ccc(C(O)C2C=CC3C(=O)N(Cc4ccccc4)C(=O)C3N2n2cnnc2)cc1 (configuration not stated)", "1.77 (inactive)"),
    ("COCCOC(=O)N1C(=O)[C@@]2(c3ccccc31)[C@H](C(=O)N1CCN(c3ncccn3)CC1)[C@H]1C(=O)O[C@H](c3ccccc3)[C@H](c3ccccc3)N1[C@@H]2c1ccccc1OCCO", "3.3 (inactive)"),
    ("C=CCC(OC(C)=O)[C@@H]1[C@@H](N(Cc2cccc3ccccc23)C(=O)Cc2ccc(OC)cc2)c2cc(OCCCO)ccc2N1C(=O)c1ccc2ccccc2c1 (some centres not stated)", "-0.37 (inactive)"),
    ("[N-]=[N+]=Nc1ccccc1C[C@@]1(C(=O)NCC(O)CO)N=C(c2ccc(OCCCO)cc2)O[C@@H]1c1ccccc1 (some centres not stated)", "-0.456 (inactive)"),
]

Alright, here's another compound for you.
Prompt line: Returns the measured z-score for the input compound. Input: CC(C)c1nc2cc(Br)ccc2c(=O)o1
Response line: 0.13 (inactive)
